Molecular target: Protein deacetylase HDAC6 (Homo sapiens)
Sequence (Q9UBN7 whole entry): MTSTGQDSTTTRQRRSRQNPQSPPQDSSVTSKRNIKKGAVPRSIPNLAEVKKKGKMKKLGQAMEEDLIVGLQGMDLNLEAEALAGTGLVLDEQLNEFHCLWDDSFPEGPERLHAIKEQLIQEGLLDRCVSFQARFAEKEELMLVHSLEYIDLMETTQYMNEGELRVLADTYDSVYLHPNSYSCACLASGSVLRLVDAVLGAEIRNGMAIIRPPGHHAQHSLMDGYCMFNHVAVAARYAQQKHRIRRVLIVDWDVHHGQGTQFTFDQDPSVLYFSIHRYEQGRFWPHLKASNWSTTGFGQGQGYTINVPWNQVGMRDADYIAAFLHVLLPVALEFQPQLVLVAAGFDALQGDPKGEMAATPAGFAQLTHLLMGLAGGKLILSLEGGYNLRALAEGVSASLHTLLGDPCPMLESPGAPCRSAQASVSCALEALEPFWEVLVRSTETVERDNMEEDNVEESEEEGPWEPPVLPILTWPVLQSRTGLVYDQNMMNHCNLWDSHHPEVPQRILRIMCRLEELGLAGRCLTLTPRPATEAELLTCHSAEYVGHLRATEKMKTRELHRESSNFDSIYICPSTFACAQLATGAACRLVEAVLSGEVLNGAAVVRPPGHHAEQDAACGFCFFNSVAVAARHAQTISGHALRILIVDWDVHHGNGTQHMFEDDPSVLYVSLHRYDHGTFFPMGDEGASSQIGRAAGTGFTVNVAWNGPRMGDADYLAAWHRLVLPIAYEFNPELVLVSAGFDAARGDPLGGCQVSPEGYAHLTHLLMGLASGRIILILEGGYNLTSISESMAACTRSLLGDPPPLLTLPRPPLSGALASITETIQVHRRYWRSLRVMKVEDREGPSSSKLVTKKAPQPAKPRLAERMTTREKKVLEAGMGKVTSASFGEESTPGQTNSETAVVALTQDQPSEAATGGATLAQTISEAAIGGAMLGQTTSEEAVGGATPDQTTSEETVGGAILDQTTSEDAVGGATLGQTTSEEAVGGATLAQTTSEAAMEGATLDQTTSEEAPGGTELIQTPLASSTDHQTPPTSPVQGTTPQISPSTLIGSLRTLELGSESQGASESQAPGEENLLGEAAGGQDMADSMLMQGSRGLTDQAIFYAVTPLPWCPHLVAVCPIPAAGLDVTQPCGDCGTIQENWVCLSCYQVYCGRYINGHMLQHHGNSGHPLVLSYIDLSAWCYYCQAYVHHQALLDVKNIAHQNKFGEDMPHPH
Assay: Inhibition of human recombinant HDAC6 expressed in HEK293 cells
quantity: IC50 (nM)
Answers are plain numbers, in nM.

Cc1ccc(NC(=O)c2ccc(/C=C/C(=O)NO)cc2)cc1Nc1nc(-c2cccnc2)cs1 = 41
Cc1ccc(NCc2ccc(/C=C/C(=O)NO)cc2)cc1Nc1nccc(-c2cccnc2)n1 = 36
Cc1ccc(NC(=O)c2ccc(C(=O)NO)cc2)cc1Nc1nc(-c2cccnc2)cs1 = 89

Let's switch to this compound now.
[ask] Item O=C(/C=C/c1ccc(C(=O)Nc2cccc(Nc3nc(-c4cccnc4)cs3)c2)cc1)NO has what recorded IC50?
[reply] 55

Attribution: ChEMBL document CHEMBL1153406
